Assay: Restrictive medium S. cerevisiae growth inhibition, OD615, pilot screen of yeast lifespan reduction project, restrictive growth control (AID 706);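 also: modified DeaD lifespan yeast strain shifted to restrictive glucose medium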
Conditions: OD615, 48 h, at 10 µM, active compounds read high
Returns one of t or f; t when growth inhibition is >= -10%.

compound: O=C(NCc1nnc(SCC(=O)N2CCC(Cc3ccccc3)CC2)o1)c1ccccc1F
assigned class: t

compound: CC1=C(C(=O)OCC(C)C)C(c2cc3c(cc2Br)OCO3)NC(=O)N1C (stereo not given)
assigned class: f

compound: Cc1ccc(CCNC(=O)C2CCCN2S(=O)(=O)c2ccc3c(c2)CCC(=O)N3)cc1 (stereo not given)
assigned class: t

compound: O=C(Oc1cc2oc(=O)c3c(c2cc1Cl)CCCC3)c1ccco1
assigned class: f

compound: O=C(COC(=O)c1cnccn1)c1ccc(OC(=O)c2ccccc2)cc1
assigned class: f

----------
Measured inhibition, listed per entry.
Test: 384-well plate pilot, post-Golgi transport modulator project, inhibition of yeast transport mutant growth (AID 636)
Conditions: absorbance 615 nm, about 18 h, active compounds read high

compound: COc1cccc(-c2csc(N3CCN(CC(=O)Nc4ccc5c(c4)OCO5)CC3)n2)c1
inhibition / %: -2.34
--
compound: CCCCC[C@H](O)/C=C/C1=C(CCCCCCC(=O)O)C(=O)CC1
inhibition / %: -0.26
--
compound: C=C(C)COc1ccc(-c2n[nH]c(C)c2-c2ccccc2)c(O)c1
inhibition / %: -1.69
--
compound: Cn1c(=O)c2c(nc(SCC(=O)N3CCCc4ccccc43)n2C)n(C)c1=O
inhibition / %: 1.22
--
compound: Cn1c(-c2ccc(C(C)(C)C)cc2)n[nH]c1=S
inhibition / %: -4.68
--
compound: Cn1c2c(c(=O)[nH]c1=O)C(NC(=O)c1ccco1)(C(F)(F)F)C(=O)N2 (configuration not stated)
inhibition / %: -1.45
--
compound: COc1ccccc1C1N(c2ccc(F)cc2)C(=O)C2CCCN21 (configuration not stated)
inhibition / %: -5.07
--
compound: Cc1ccc(NC(=O)COC(=O)c2ccn(C)n2)cc1
inhibition / %: -2.74
--
compound: O=C(O)CCc1ccc(-c2ccccc2)n1CC(=O)O
inhibition / %: -1.43
--
compound: O=C(Nc1ccccc1C(=O)O)c1cccc(NC(=O)c2ccc(Br)o2)c1
inhibition / %: -10.8
--
compound: COc1ccc(NC(=O)CCc2ccccc2)cc1NC(=O)c1ccco1
inhibition / %: -7.12
--
compound: Cc1cc(NC(=O)Cc2c(F)cccc2Cl)no1
inhibition / %: -7.26
--
compound: CC(C)(C)OC(=O)N1CC=C2C(C#N)=C(N)C(C#N)(C#N)[C@H](c3cccnc3)[C@H]2C1
inhibition / %: -2.67
--
compound: COc1ccccc1N1CCN(C(=O)c2cc(-c3ccc(Cl)c(Cl)c3)on2)CC1
inhibition / %: -4.13
--
compound: CC(C)OC(=O)c1cc(NC(=O)C2C3CCC(O3)C2C(=O)O)cc(C(=O)OC(C)C)c1 (configuration not stated)
inhibition / %: -7.81
--
compound: O=C(C1CCCCC1)N1CCC(c2nc3c(nnn3Cc3ccccc3Cl)c(=O)[nH]2)CC1
inhibition / %: -3.24
--
compound: CSCCC(NC(=O)CCN1C(=O)c2ccccc2C1=O)C(=O)O (configuration not stated)
inhibition / %: -3.01
--
compound: CCOC(=O)c1cnc(-n2nc(C)cc2C)nc1Nc1ccc(N(C)C)cc1
inhibition / %: -6.05
--
compound: CC1CCN(C(=O)c2cc(-c3ccc(Cl)c(Cl)c3)on2)CC1
inhibition / %: -2.11
--
compound: CN(C(=O)c1ccc(S(=O)(=O)NC2CCCC2)cc1)C1CCCCC1
inhibition / %: -3.38
--
compound: O=C(NC1CCS(=O)(=O)C1)OC1CCCCC1 (configuration not stated)
inhibition / %: -0.82
--
compound: O=C(COc1ccccc1Cl)N1CCCC1
inhibition / %: 2.24
